# Experimental Protocol: Individual predicted steady-state PK parameters
# Type: in vivo, human
# Condition Notes: human, plasma, oral
Measurement Label: Tmax

INSERT INTO assay_data (smiles_entry, assay_value) VALUES
  ('C[C@@H]1CCO[C@H]2Cn3cc(C(=O)NCc4ccc(F)cc4F)c(=O)c(O)c3C(=O)N12', '~2 h');
